Overview of recorded pIC50 for various compounds
# Tested on: p-MAPK (T202/Y204) in A375 human melanoma cells, having a mutated B-RAF
# protocol.summary: p-MAPK (T202/Y204) ArrayScan assay
# Assay type: cell-based
# experimental.context: A-375, 1.5 or 2 hours treatment, cytoplasmatic p-MAPK fluorescence, read-out: Array Scan A375 IC50
pIC50: −log10 of the molar value.

item.smiles | observed
Nc1cc(-c2cn(CCF)nc2-c2cccc(NS(=O)(=O)c3cc(F)ccc3F)c2F)ccn1 | > 7.80
Nc1cc(-c2cn(C3CCCC3)nc2-c2cccc(NS(=O)(=O)c3cc(F)ccc3F)c2F)ccn1 | > 7.80
CC(=O)Nc1cc(-c2cn(C3CCN(C)CC3)nc2-c2cccc(NS(=O)(=O)c3cc(F)ccc3F)c2F)ccn1 | > 7.80
O=S(=O)(Nc1cccc(-c2nn(C3CCN(C4CC4)CC3)cc2-c2ccncc2)c1F)c1cc(F)ccc1F | > 7.80
Nc1cc(-c2cn(C3CCOCC3)nc2-c2cccc(NS(=O)(=O)c3cc(F)ccc3F)c2F)ccn1 | > 7.80

## Input // Input: `CC(C)n1cc(-c2ccnc(N)n2)c(-c2cccc(NS(=O)(=O)c3cc(F)ccc3F)c2F)n1` . Output its pIC50 only.
## Output > 7.80

## Input // Input: `Nc1nccc(-c2cn(CCF)nc2-c2cccc(NS(=O)(=O)c3cc(F)ccc3F)c2F)n1` . Output its pIC50 only.
## Output > 7.80
